# Tested on: MOLT-4
# assay_explanation: NCI tumour cell line growth inhibition, 48 h
Calls of active or inactive are those of the source. No stated cut-off is given here; in the data, active = GI50 up to about 1.1 µM and inactive = higher.
For each record, write down the corresponding GI50.

Q: Quick check: GI50 of CC12CC(c3ccccc3O1)C(C(=O)Nc1ccc(Cl)cc1Cl)C(=O)N2 (centres undefined) ?
A: 19.1 µM (inactive)

Q: Reported GI50 for CCOC(=O)C1(O)C(=O)C2=C3C(=O)OC(C4OC(=O)c5c(c(O)c(O)c(O)c5C31)-c1c(cc(O)c(O)c1O)C(=O)OC1COC(=O)c3cc(O)c(O)c(O)c3-c3c(cc(O)c(O)c3O)C(=O)OC14)[C@@H]2O (some centres undefined) : what is it?
A: 22 µM (inactive)

Q: # query: GI50 of entry `COC(=O)C1=C(CCCCO[Si](C)(C)C(C)(C)C)NC(=O)N2[C@H](CCOCc3ccccc3)CC[C@@H]12`
A: > 100 µM (inactive)

Q: Which GI50 value is on record for O=C1CCC23CC(C=CC=C12)n1c(=O)n(-c2ccccc2)c(=O)n13 (centres undefined) ?
A: 49.7 µM (inactive)
